Provide the reported Human Predicted Hepatocyte CL of each item.
Assay: Hepatocyte stability assay, human
Format: in vitro ADME
Conditions: human hepatocytes, 1 μM
Description: BioreclamationIVT (Baltimore, MD) provided the cryopreserved hepatocytes, hepatocyte thawing (HT) medium, and Krebs-Henseleit buffer (KHB) medium. […] Metabolic Stability in Cryopreserved Hepatocytes: Test compounds, or the positive control metabolic substrate, was incubated in suspensions of cryopreserved hepatocytes at a final concentration of 1 μM. […] The viabilities of all cell preparations were ≥85%, assessed by Trypan blue dye exclusion. […]
Value expressed in mL/min/kg; do not type the unit.

Query: Suppose we examine the compound Nc1nc2cnc(C(=O)N3CCC[C@@H]4Oc5cc(C(F)(F)F)cc(F)c5[C@@H]43)cc2n2cncc12 (single isomer, unassigned) ; what Human Predicted Hepatocyte CL value has been reported?
Response: 2.83

Query: C[C@@H]1CN(C(=O)c2cc3c(cc2F)nc(N)c2cncn23)[C@H]2c3cc(F)c(OC(F)(F)F)cc3C[C@H]2O1 (single isomer, unassigned) ?
Response: 4.17

Query: Note, next up: C[C@H]1CN(C(=O)c2cc3c(cc2F)nc(N)c2cncn23)[C@H]2c3cc(F)c(C(F)F)cc3C[C@H]2O1 (single isomer, unassigned)
Response: 3

Query: Also Nc1nc2cnc(C(=O)N3CCC[C@@H]4Oc5cc(OC(F)(F)F)cc(F)c5[C@@H]43)cc2n2cncc12 (single isomer, unassigned) , if possible.
Response: 4

The measured values listed here are drawn from patent US12448388B2.
